The measurements presented in this section are drawn from ChEMBL document CHEMBL1268872.

# system: Mitogen-activated protein kinase 14 (Homo sapiens)
# assay info: Binding affinity to phosphorylated p38alpha by fluoroprobe binding assay
IC50 vs 40 nM: less than gives true (1); not less than gives false (0).

Examples from the recorded data:
compound_string=NC(=O)Cc1cccc(-n2nc(-c3ccsc3)cc2NC(=O)Nc2cccc(Cl)c2Cl)c1 system="Mitogen-activated protein kinase 14 (Homo sapiens)" class="true (1)"
compound_string=NC(=O)Cc1cccc(-n2nc(C3CCCC3)cc2NC(=O)Nc2cccc(Cl)c2Cl)c1 system="Mitogen-activated protein kinase 14 (Homo sapiens)" class="true (1)"
compound_string=NC(=O)Cc1cccc(-n2nc(-c3ccccc3)cc2NC(=O)Nc2cccc(Cl)c2Cl)c1 system="Mitogen-activated protein kinase 14 (Homo sapiens)" class="false (0)"

Answer whether the compound `NC(=O)Cc1cccc(-n2nc(-c3cccs3)cc2NC(=O)Nc2cccc(Cl)c2Cl)c1` has IC50 strictly less than 40 nM
false (0)

###

# system: Mitogen-activated protein kinase 14 (Homo sapiens, UniProt Q16539)
# Sequence (Q16539 whole entry): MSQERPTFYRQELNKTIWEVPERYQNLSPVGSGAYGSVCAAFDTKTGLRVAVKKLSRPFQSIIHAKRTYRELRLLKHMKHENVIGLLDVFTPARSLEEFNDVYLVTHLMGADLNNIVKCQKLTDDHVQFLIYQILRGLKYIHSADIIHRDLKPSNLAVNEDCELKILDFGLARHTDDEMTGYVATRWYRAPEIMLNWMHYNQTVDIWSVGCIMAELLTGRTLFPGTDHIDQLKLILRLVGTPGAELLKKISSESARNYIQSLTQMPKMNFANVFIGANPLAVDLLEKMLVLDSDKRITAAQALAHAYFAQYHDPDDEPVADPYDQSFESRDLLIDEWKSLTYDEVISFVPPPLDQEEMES
# assay info: Inhibition of p38alpha autophosphorylation
pIC50: −log10 of the molar value.
outcome measure: pIC50

Per the record, `NC(=O)Cc1cccc(-n2nc(-c3cccs3)cc2NC(=O)Nc2cccc(Cl)c2Cl)c1` has pIC50 of < 5.30

###

Below, each entry is listed alongside its reported ΔTm.
# system: Mitogen-activated protein kinase 14 (Homo sapiens, UniProt Q16539)
# assay info: Binding affinity to unphosphorylated p38alpha assessed as change in melting temperature
// note: answer is a bare numeric in °C

Known results for compounds:
compound_string=CC(C)(C)c1cc(NC(=O)Nc2cccc3ccccc23)n(-c2cccc(CC(N)=O)c2)n1 observed_value=9.1
compound_string=NC(=O)Cc1cccc(-n2nc(-c3ccccc3)cc2NC(=O)Nc2cccc(Cl)c2Cl)c1 observed_value=8
compound_string=NC(=O)Cc1cccc(-n2nc(-c3ccccc3F)cc2NC(=O)Nc2cccc(Cl)c2Cl)c1 observed_value=8.8

Per the record, `CC(C)(C)c1cc(NC(=O)Nc2cccc(Cl)c2Cl)n(-c2cccc(CC(N)=O)c2)n1` has ΔTm of 12.8

Per the record, `NC(=O)Cc1cccc(-n2nc(C3CCCC3)cc2NC(=O)Nc2cccc(Cl)c2Cl)c1` has ΔTm of 12.2

Per the record, `NC(=O)Cc1cccc(-n2nc(-c3cccs3)cc2NC(=O)Nc2cccc(Cl)c2Cl)c1` has ΔTm of 11.2

Per the record, `NC(=O)Cc1cccc(-n2nc(-c3ccsc3)cc2NC(=O)Nc2cccc(Cl)c2Cl)c1` has ΔTm of 11.6

###

# system: UniProt:P29323
# Sequence (P29323 whole entry): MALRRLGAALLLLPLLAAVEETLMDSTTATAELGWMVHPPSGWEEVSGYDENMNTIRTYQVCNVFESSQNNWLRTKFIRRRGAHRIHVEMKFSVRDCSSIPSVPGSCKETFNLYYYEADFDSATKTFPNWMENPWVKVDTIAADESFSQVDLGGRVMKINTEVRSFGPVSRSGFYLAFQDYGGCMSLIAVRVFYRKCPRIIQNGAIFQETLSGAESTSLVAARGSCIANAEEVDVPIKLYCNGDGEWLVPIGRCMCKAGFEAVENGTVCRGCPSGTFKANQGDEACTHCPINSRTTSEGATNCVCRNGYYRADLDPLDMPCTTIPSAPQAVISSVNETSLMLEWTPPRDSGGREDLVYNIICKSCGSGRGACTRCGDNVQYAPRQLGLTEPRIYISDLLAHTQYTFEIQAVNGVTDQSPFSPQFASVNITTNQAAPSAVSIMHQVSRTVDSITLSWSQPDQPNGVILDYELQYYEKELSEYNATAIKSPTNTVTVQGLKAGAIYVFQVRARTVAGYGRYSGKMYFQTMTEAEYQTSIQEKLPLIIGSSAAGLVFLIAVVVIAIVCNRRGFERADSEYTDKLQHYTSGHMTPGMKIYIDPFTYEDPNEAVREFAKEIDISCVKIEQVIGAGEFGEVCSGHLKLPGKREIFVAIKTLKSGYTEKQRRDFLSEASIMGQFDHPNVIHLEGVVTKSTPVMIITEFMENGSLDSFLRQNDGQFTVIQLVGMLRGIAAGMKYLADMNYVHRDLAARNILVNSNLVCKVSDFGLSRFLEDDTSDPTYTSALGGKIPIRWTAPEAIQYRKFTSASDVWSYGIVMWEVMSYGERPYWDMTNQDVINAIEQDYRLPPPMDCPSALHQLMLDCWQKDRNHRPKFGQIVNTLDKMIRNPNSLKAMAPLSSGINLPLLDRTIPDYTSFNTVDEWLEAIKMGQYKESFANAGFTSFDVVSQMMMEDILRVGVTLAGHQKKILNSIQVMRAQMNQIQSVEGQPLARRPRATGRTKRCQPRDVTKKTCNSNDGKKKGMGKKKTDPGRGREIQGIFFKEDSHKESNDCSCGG
outcome measure: IC50

Per the record, `NC(=O)Cc1cccc(-n2nc(-c3cccs3)cc2NC(=O)Nc2cccc(Cl)c2Cl)c1` has IC50 of > 50 µM
